Here, each record is paired with measured Delta G data.
Test system: Erythrocyte beta receptor
Assay Info: Free energy of binding to turkey erythrocyte beta receptor
Design: unit not given here
Test Context: Meleagris gallopavo
Response field accepts a number only; no unit should be typed.

For orientation, consider the following solved cases.
{"Molecule": "CC(C)(Cc1ccccc1)NC[C@H](O)c1ccc(O)c(NS(C)(=O)=O)c1", "Delta G": -9.64}
{"Molecule": "CCNC[C@H](O)c1cccc(O)c1", "Delta G": -6.75}
{"Molecule": "CC(C)NC[C@H](O)c1ccc(NS(C)(=O)=O)cc1", "Delta G": -8.46}
{"Molecule": "CC(C)(Cc1ccc(O)cc1)NC[C@H](O)c1ccc(O)c(O)c1", "Delta G": -10}
{"Molecule": "CC(C)NC[C@H](O)c1ccc(NS(C)(=O)=O)c(O)c1", "Delta G": -6.29}

Identify measured Delta G corresponding to NC[C@H](O)COc1cccc2ccccc12 -10.9

Identify measured Delta G corresponding to C[C@H](N)[C@H](O)c1ccc(O)cc1 -6.27

Identify measured Delta G corresponding to Oc1ccc(CCNC[C@H](O)COc2cccc3ccccc23)cc1 -10.9

Identify measured Delta G corresponding to CC(Cc1ccc2c(c1)OCO2)NC[C@H](O)c1ccc(O)c(O)c1 (stereo not given in full) -9.88

Origin of measurements: ChEMBL document CHEMBL1123401
